Recorded values, source patent US20080254032A1.

Quick reference for Human Whole Blood Monocyte Activation Assay [IC50, M] among some binders
Target: T1, human M-CSF (human, UniProt P09603 33-190)
T1 chain: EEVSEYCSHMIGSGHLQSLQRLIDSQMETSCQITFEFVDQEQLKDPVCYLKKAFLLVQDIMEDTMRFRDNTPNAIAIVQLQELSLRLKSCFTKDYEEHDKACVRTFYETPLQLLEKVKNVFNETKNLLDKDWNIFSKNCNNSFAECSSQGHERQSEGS
Test: cell-based or functional assay
RESULT TYPE: Human Whole Blood Monocyte Activation Assay [IC50, M] (M)

BINDER	UNIT STRING	TEST RESULT
monoclonal antibody 100 (antibody, human IgG2, kappa, V domains shown) VH: EVQLLESGGGLVQPGGSLRLSCAASGFTFSSYAMSWVRQAPGKGLEWVSAISGRGGRTYFADSVKGRFTISRDNSKNTLYLQMNSLRAEDTAVYFCAVEGYSGRYGFFDYWGQGTLVTVSS VL: EIVMTQSPATLSVSPGERATLSCRASQSVSSNLAWYQQKPGQAPRLLIYGASTRASGIPDRISGSGSGTEFTLIISSLQSEDFAVYYCQQSNNWPFTFGPGTKVDIKR	M	1.53e-10
monoclonal antibody 88 (antibody, human IgG2, kappa, V domains shown) VH: EVQLVESGGGLVQPGGSLRLSCAASGFTFSSYWMSWVRQAPGKGLEWVANIKQDGSEKYYVDSVKGRFTISRDNAKNSLYLQMNSLRAEDTAVYYCAPGIAAAGRAYWGQGTLVTVSS VL: DIQMTQSPSSLSASVGDRVTITCRPSQDISSYLNWYQQKPGKAPKLLIYAASSLQSGVPLRFSGSGSGTDFTLTISSLQPEDFATYYCQQSYSTPFTFGPGTKVDIKR	M	5.8e-10
